tested on: MDA-MB-435 melanoma; test: NCI-60 one-dose screen, 48 h; conditions: 10 µM unless noted
This is part of a sample that, as a whole, favours compounds with a hit. Of some 83,000 tested, about 20% had one in any assay. Activity calls are given as the source filed them. Rule for the calls: active = growth percent below 10; inactive = the rest.
Outcome codes: active, inactive

>  <Smiles entry>
[2H]C([2H])([2H])Oc1ccc(/C=C/C(=O)/C=C(/C=C/c2ccc(OC([2H])([2H])[2H])c(OC([2H])([2H])[2H])c2OC([2H])([2H])[2H])OB(F)F)c(OC([2H])([2H])[2H])c1OC([2H])([2H])[2H]

>  <Cat>
inactive

$$$$
>  <Smiles entry>
Clc1ccc(C2=Nn3c(nnc3-c3cc(Cl)cc(Cl)c3Cl)SC2)cc1

>  <Cat>
active

$$$$
>  <Smiles entry>
Cc1c(CC(=O)Nc2ccccc2)nnn1-c1ccccc1

>  <Cat>
inactive

$$$$
>  <Smiles entry>
C=CCn1c(SCC(=O)Nc2ccc(C(=O)/C=C/c3ccc(Cl)cc3)cc2)nnc1-c1ccc(Cl)c(Cl)c1

>  <Cat>
inactive

$$$$
>  <Smiles entry>
O=C1N/C(=N/N=C(c2ccccc2)c2ccccc2)S/C1=C\c1ccc(Br)cc1

>  <Cat>
inactive

$$$$

----------
System: UACC-62 melanoma
Experiment: NCI-60 one-dose screen, 48 h (100 = growth as untreated, 0 = no growth, -100 = all killed)
Conditions: 10 µM unless noted
Experimental: Growth inhibition of the UACC-62 human tumor cell line is measured as a screen for anti-cancer activity. Cells are grown in 96 well plates and exposed to the test compound for 48 hours. Compounds are tested at a single concentration, which is 10^-5 M for most compounds. The reported endpoint is percent growth (GI% or GIPRCNT), where numbers from 0 - 100% represent growth inhibition, and numbers from -100% - 0 represent cell death. For example, a value of 40 represents 60% growth inhibition. […]
This is part of a sample that, as a whole, favours compounds with a hit. Of some 83,000 tested, about 20% had one in any assay.
Assign labels as follows, please: yes for growth below 40%; no for growth equal to or exceeding 40%.

>  <Compound>
CCCCCC(C)(O)C(C(=O)O)c1ccccc1 (stereo unspecified)

>  <Cat>
no

$$$$
>  <Compound>
Cc1ccc(NC(=O)c2ccc(Nc3ncnc4c3cnn4-c3cccc(F)c3)cc2)cc1

>  <Cat>
no

$$$$
>  <Compound>
C=C(C)Cn1c(SCC(=O)c2cccs2)nc2sc3c(c2c1=O)CCCC3

>  <Cat>
no

$$$$
>  <Compound>
O=C(Oc1ccccc1)c1cc(O)c(O)c(O)c1

>  <Cat>
yes

$$$$
>  <Compound>
FC(F)(F)c1cccc(-c2nnn(Cc3cc(-c4cccc(Cl)c4)no3)n2)c1

>  <Cat>
no

$$$$
>  <Compound>
CC1(C)C2=C(C(=O)N1Cc1ccccc1)C(c1ccco1)N(C(=O)C1CCC1)CCN2 (stereo unspecified)

>  <Cat>
no

$$$$
>  <Compound>
Cc1ccc(S(=O)(=O)c2nc(-c3ccccc3)oc2S(C)=O)cc1 (stereo unspecified)

>  <Cat>
no

$$$$
>  <Compound>
O=C(Nc1ccccc1)Nc1ccccc1CNc1nc(Nc2ccc(OCCN3CCCC3)cc2)ncc1Cl

>  <Cat>
no

$$$$
>  <Compound>
CCOc1ccccc1NC(=O)CCC(=O)OC

>  <Cat>
no

$$$$
>  <Compound>
COC(=O)c1cc(-c2ccc(OC)c(OC)c2)[nH]c1N/N=C/c1c(Cl)cccc1Cl

>  <Cat>
yes

$$$$
>  <Compound>
CNC(=O)c1cc(Oc2ccc3nc(NC(=O)NC(C)C)sc3c2)ccn1

>  <Cat>
no

$$$$
>  <Compound>
CCN(CC)CCCNc1cc(OC)cc2cccnc12

>  <Cat>
no

$$$$
>  <Compound>
C/C(=N\NC(=O)c1ccc(C(C)(C)C)cc1)c1ccc(O)cc1O

>  <Cat>
yes

$$$$
>  <Compound>
CCN1C(=O)N(CC)C2C1NN=c1s/c(=C\c3ccc([N+](=O)[O-])cc3)c(=O)n12 (stereo unspecified)

>  <Cat>
yes

$$$$
>  <Compound>
COc1ccccc1/C=C/C1=C(C)CCC(c2ccccc2OC)C1C (stereo unspecified)

>  <Cat>
yes

$$$$
>  <Compound>
O=c1c(Cc2ccc(F)cc2)cc(-c2ccccc2)nn1C/C(=N/O)c1ccccc1

>  <Cat>
yes

$$$$
>  <Compound>
CO[C@]12C=C/C(=C(/C(=O)OCc3cccnc3)C(=O)CCCCCCCC[C@]3(OC)C=C/C(=C(/C(=O)OCc4cccnc4)C(=O)CCCCCCCC1)O3)O2

>  <Cat>
yes

$$$$
>  <Compound>
COc1ccc(NC(=O)c2sc3nc(C)c(C(=O)c4ccccc4)cc3c2N)cc1

>  <Cat>
no

$$$$
>  <Compound>
CC1=C(C(=O)c2ccccc2)C(c2ccc3c(c2)OCO3)NC(=S)N1 (stereo unspecified)

>  <Cat>
no

$$$$
>  <Compound>
Cc1ccc(S(=O)(=O)N(CCC(=O)O)c2ccccc2)cc1

>  <Cat>
no

$$$$

----------
system: DU-145 prostate; assay: NCI-60 one-dose screen, 48 h; conditions: 10 µM unless noted
Compounds without any hit were thinned out: in the full panel of roughly 83,000, 20% have a hit. The source made the active and inactive calls. How the source made its calls: active means growth percent below 10; inactive means the rest.
Outcome codes: Yes = active, No = inactive

>  <Molecule>
COc1cc2cc(Oc3ccc(NC(=O)Nc4ccc(Cl)c(Cl)c4)cc3)c(C)nc2cc1OCCN1CCCCC1

>  <System under test>
DU-145 prostate

>  <Cat>
No

$$$$
>  <Molecule>
O=C(CN1C(=O)NC2NC(=O)NC21)N/N=C/c1cccc([N+](=O)[O-])c1 (stereo unspecified)

>  <System under test>
DU-145 prostate

>  <Cat>
No

$$$$
>  <Molecule>
O=C(Nc1ncc(Cc2ccccc2)s1)c1cc(-c2ccccc2)nc2ccccc12

>  <System under test>
DU-145 prostate

>  <Cat>
No

$$$$
>  <Molecule>
COc1ccc(C(=O)C2OC3=C(C(=O)CC(C)(C)C3)C2c2cccc(Oc3ccccc3)c2)cc1 (stereo unspecified)

>  <System under test>
DU-145 prostate

>  <Cat>
No

$$$$
>  <Molecule>
CC1(C)C2=C(C(=O)N1Cc1ccccc1)C(c1ccco1)N(C(=O)C1CCC1)CCN2 (stereo unspecified)

>  <System under test>
DU-145 prostate

>  <Cat>
No

$$$$
>  <Molecule>
CCN1CCN(c2nc(NNC(=O)c3ccc(OC)cc3)nc(N3CCN(C(c4ccccc4)c4ccccc4)CC3)n2)CC1

>  <System under test>
DU-145 prostate

>  <Cat>
No

$$$$
>  <Molecule>
COc1cc(NC(=O)c2cncnc2Nc2ccc3c(ccn3Cc3cccc(F)c3)c2)cc(OC)c1

>  <System under test>
DU-145 prostate

>  <Cat>
No

$$$$
>  <Molecule>
O=C(Nc1ccc(Cl)cc1)C1=NCCCCN1

>  <System under test>
DU-145 prostate

>  <Cat>
No

$$$$
>  <Molecule>
Nc1ncc(-c2ccc3ncnc(N4CCc5cc(F)c(Cl)cc54)c3c2)cc1C=O

>  <System under test>
DU-145 prostate

>  <Cat>
No

$$$$
>  <Molecule>
COC(=O)[C@@H](Cc1c[nH]c2ccccc12)NC(=O)[C@H](Cc1ccccc1)NCc1ccncc1

>  <System under test>
DU-145 prostate

>  <Cat>
No

$$$$
>  <Molecule>
C=CCNc1nc(O)c(/C=C2\C=Nc3ncccc32)s1

>  <System under test>
DU-145 prostate

>  <Cat>
No

$$$$
>  <Molecule>
C#Cc1cccc(Nc2nc(Cl)nc3cc(NC(=O)CCl)ccc23)c1

>  <System under test>
DU-145 prostate

>  <Cat>
Yes

$$$$
>  <Molecule>
Nc1ncnc2c1N=C(c1ccc([N+](=O)[O-])cc1)CC(c1ccc3c(c1)OCO3)N2 (stereo unspecified)

>  <System under test>
DU-145 prostate

>  <Cat>
No

$$$$
>  <Molecule>
Cc1c(N2CCCCC2)[nH]c2ccccc12

>  <System under test>
DU-145 prostate

>  <Cat>
No

$$$$
>  <Molecule>
COc1ccc(S(=O)(=O)Oc2ccc(-c3sc4cc(OS(=O)(=O)c5ccc(OC)cc5)ccc4c3C(=O)c3ccc(OCCN4CCCCC4)cc3)cc2)cc1

>  <System under test>
DU-145 prostate

>  <Cat>
No

$$$$
>  <Molecule>
COc1ccc(Nc2nc(Nc3cc(C)[nH]n3)c3cc(OC)c(OC)cc3n2)cc1

>  <System under test>
DU-145 prostate

>  <Cat>
Yes

$$$$
>  <Molecule>
O=C1c2cccnc2C(=O)c2c1c(C(=O)OCCCN1CCOCC1)c1ccccn21

>  <System under test>
DU-145 prostate

>  <Cat>
Yes

$$$$
>  <Molecule>
N/C(=N\c1nc2ccccc2s1)NC(=O)Nc1ccccc1

>  <System under test>
DU-145 prostate

>  <Cat>
No

$$$$
>  <Molecule>
COc1ccc(NC(=O)c2sc3nc(C)c(C(=O)c4ccccc4)cc3c2N)cc1

>  <System under test>
DU-145 prostate

>  <Cat>
No

$$$$
>  <Molecule>
COCCn1cc(-c2nc(-c3cc4cccnc4n3C)cs2)c2cc(OC)ccc21

>  <System under test>
DU-145 prostate

>  <Cat>
No

$$$$
>  <Molecule>
COc1ccc(/C=N\NC(=O)c2ccc3nc(-c4ccc(Cl)cc4)[nH]c3c2)cc1

>  <System under test>
DU-145 prostate

>  <Cat>
No

$$$$
>  <Molecule>
CC(C)(C)[C@H](OCc1cn([C@H]2C[C@@H](O)[C@@H](CO)O2)c(=O)[nH]c1=O)c1ccc(C#Cc2ccccc2)cc1[N+](=O)[O-]

>  <System under test>
DU-145 prostate

>  <Cat>
No

$$$$
>  <Molecule>
CCN1CCN(C(=O)[C@]23CC[C@@H](C)[C@H](C)[C@@H]2C2=CC[C@@H]4[C@@]5(C)C/C(=C/c6ccncc6)C(=O)C(C)(C)[C@@H]5CC[C@@]4(C)[C@]2(C)CC3)CC1

>  <System under test>
DU-145 prostate

>  <Cat>
No

$$$$
>  <Molecule>
Fc1ccc(/C=C/c2cc(/C=C/c3ccc(F)cc3)n(-c3cc(F)cc(F)c3)n2)cc1

>  <System under test>
DU-145 prostate

>  <Cat>
No

$$$$
>  <Molecule>
O=C1/C(=C/c2cccc(Br)c2)COc2ccc(O)c(O)c21

>  <System under test>
DU-145 prostate

>  <Cat>
Yes

$$$$
>  <Molecule>
CCOC(=O)c1c(C)nc2c(c1N)C(=O)C(=O)N2CCc1ccc(OC)c(OC)c1

>  <System under test>
DU-145 prostate

>  <Cat>
No

$$$$
>  <Molecule>
CCN1C(=O)N(CC)C2C1NC(=S)N2/N=C/C=C/c1ccccc1 (stereo unspecified)

>  <System under test>
DU-145 prostate

>  <Cat>
Yes

$$$$
>  <Molecule>
C#CCOc1cccc(Nc2c(Cl)c(CCl)nc3ccc(Oc4ccccc4)cc23)c1

>  <System under test>
DU-145 prostate

>  <Cat>
No

$$$$
>  <Molecule>
O=C(Nc1ccc2[nH]ncc2c1)c1csc(Nc2ccccc2)n1

>  <System under test>
DU-145 prostate

>  <Cat>
No

$$$$
>  <Molecule>
C=C(CNCCO)[C@@H]1CC[C@]2(CO)CC[C@]3(C)[C@H](CC[C@@H]4[C@@]5(C)CCC(NCCO)C(C)(C)[C@@H]5CC[C@]43C)[C@@H]12 (stereo partly specified)

>  <System under test>
DU-145 prostate

>  <Cat>
No

$$$$
>  <Molecule>
O=C(c1ccc(F)cc1)C1CCN(CCn2c(=O)[nH]c3ccccc3c2=O)CC1

>  <System under test>
DU-145 prostate

>  <Cat>
No

$$$$
>  <Molecule>
CN(C)CCOc1nc2c3cc([N+](=O)[O-])ccc3nn2c2ccccc12

>  <System under test>
DU-145 prostate

>  <Cat>
No

$$$$
>  <Molecule>
CN1CCN(Cc2ccc(NC(=O)c3cncc(C#Cc4c(N)ncc5c(F)cccc45)c3)cc2C(F)(F)F)CC1

>  <System under test>
DU-145 prostate

>  <Cat>
Yes

$$$$
>  <Molecule>
COc1cc(/C=C/C(=O)c2ccc(-n3cc(CN4CCN(c5cc6c(cc5F)c(=O)c(C(=O)O)cn6C5CC5)CC4)nn3)cc2)cc(OC)c1OC

>  <System under test>
DU-145 prostate

>  <Cat>
No

$$$$
>  <Molecule>
C=C(C)[C@@H]1CC[C@]2(COC(=O)c3cccnc3)CC[C@]3(C)[C@H](CC[C@@H]4[C@@]5(C)CCCN(C(=O)c6cccnc6)C(C)(C)[C@@H]5CC[C@]43C)[C@@H]12

>  <System under test>
DU-145 prostate

>  <Cat>
No

$$$$
>  <Molecule>
CS(=O)(=O)c1ccc(/C(=N/NC(N)=S)c2ccc(F)cc2)cc1

>  <System under test>
DU-145 prostate

>  <Cat>
No

$$$$

The measured values listed here are drawn from PubChem BioAssay (NCI).
